- System: T1, IL10Rα/IL2Rγ receptor (human) (UniProt Q13651)
- T1 sequence (looked up) 1: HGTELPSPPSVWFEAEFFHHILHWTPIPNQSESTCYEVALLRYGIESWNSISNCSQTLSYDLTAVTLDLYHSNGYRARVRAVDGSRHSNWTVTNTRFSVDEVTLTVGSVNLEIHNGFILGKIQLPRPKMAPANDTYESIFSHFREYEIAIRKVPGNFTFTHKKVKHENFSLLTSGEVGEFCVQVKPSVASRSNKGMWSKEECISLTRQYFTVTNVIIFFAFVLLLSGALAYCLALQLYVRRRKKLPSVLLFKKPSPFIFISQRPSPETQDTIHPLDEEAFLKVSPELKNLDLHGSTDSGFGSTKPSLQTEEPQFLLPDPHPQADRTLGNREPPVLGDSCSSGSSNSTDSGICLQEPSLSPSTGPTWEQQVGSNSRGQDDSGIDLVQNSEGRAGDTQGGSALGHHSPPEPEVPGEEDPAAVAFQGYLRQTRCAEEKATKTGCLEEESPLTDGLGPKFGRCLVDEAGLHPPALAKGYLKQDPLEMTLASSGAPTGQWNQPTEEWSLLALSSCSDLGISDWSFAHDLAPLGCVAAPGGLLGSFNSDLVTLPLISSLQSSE
- T1 sequence (looked up) 2: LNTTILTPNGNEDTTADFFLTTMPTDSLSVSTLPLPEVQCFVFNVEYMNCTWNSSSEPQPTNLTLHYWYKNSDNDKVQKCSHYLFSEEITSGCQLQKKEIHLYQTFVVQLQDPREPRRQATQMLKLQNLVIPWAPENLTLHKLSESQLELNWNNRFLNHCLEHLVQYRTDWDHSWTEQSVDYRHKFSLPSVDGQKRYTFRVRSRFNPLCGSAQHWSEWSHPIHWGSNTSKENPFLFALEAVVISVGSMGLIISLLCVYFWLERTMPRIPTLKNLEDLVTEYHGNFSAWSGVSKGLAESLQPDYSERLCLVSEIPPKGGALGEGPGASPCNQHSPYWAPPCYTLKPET
- Run Description: cell-based or functional assay
Endpoint: IL-1β secretion, LPS treated monocytes, at 0.001 µM (pg/mL)
Give a bare numeral; the unit pg/mL is implied.

Prompt: Bench note: what IL-1β secretion, LPS treated monocytes, at 0.001 µM did hIL10Ra_VHH14 - hIL2Rg_VHH19, No linker, tag his (bispecific antibody, not shown: small tags and cut ends) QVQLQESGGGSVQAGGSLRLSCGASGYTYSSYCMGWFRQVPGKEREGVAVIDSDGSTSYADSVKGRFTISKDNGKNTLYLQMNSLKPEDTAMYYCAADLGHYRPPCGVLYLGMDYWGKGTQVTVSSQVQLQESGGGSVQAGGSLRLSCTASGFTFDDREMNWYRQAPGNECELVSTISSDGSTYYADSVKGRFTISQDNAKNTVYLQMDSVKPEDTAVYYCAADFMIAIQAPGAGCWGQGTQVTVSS show?
Completion: 5550
